Hey, just so you know, these numbers are from ChEMBL document CHEMBL5154804.

- tested_target: CYP1A2 (Homo sapiens)
- Sequence (P05177 whole entry): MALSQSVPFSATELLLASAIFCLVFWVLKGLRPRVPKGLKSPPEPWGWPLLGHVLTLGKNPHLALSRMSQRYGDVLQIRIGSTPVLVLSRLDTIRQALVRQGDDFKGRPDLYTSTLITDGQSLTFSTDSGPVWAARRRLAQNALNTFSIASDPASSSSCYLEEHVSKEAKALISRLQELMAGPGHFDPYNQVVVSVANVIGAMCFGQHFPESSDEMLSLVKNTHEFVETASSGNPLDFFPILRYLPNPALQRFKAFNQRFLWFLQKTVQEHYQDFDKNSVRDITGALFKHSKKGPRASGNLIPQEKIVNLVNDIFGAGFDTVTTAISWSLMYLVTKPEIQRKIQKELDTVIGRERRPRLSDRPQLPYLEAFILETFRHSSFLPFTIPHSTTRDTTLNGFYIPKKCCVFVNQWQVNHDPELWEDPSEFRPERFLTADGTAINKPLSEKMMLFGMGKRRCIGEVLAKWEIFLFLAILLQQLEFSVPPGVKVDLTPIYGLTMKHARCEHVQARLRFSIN
- assay_remarks: Inhibition of CYP1A2 in human liver microsome at 10 uM using phenacetin as substrate incubated for 10 mins in presence of NADPH cofactor by LC-MS/MS analysis
- Type: ADME
- condition_set: liver microsomes, probe phenacetin
recorded_endpoint: inhibition at 10 min, 10 µM (%)

| compound_structure_string | unit | value |
| --- | --- | --- |
| CNC(=O)c1noc(-c2cc(-c3ccc(C)cc3)c(O)cc2O)c1-c1ccc(CN2CCCCC2)cc1 | % | 17.7 |
| CCNC(=O)c1noc(-c2cc(-c3ccc(C)cc3)c(O)cc2O)c1-c1ccc(CN2CCCCC2)cc1 | % | 12 |
| CNC(=O)c1noc(-c2cc(-c3ccc(C)cc3)c(O)cc2O)c1-c1ccc(CN2CCOCC2)cc1 | % | 9.9 |
| CCNC(=O)c1noc(-c2cc(-c3ccc(C)cc3)c(O)cc2O)c1-c1ccc(CN2CCOCC2)cc1 | % | 8 |
